settings: in n-butanol, 308.15 K

mol.smiles | solubility (mole fraction)
CC1=C(C(=O)O)N2C(=O)[C@@H](NC(=O)[C@H](N)C3=CCC=CC3)[C@H]2SC1 | 0.000657

====

conditions: in n-butanol, 303.15 K
measurement.name: solubility (mole fraction)

mol.smiles | numeric.result
CC1=C(C(=O)O)N2C(=O)[C@@H](NC(=O)[C@H](N)C3=CCC=CC3)[C@H]2SC1 | 0.000567

====

conditions: in n-butanol, 291.15 K

mol.smiles | solubility (mole fraction)
CC1=C(C(=O)O)N2C(=O)[C@@H](NC(=O)[C@H](N)C3=CCC=CC3)[C@H]2SC1 | 0.000369

====

conditions: in n-propanol, 285.15 K

mol.smiles | solubility (mole fraction)
CC1=C(C(=O)O)N2C(=O)[C@@H](NC(=O)[C@H](N)C3=CCC=CC3)[C@H]2SC1 | 0.000198

====

details: in methanol, 303.15 K

mol.smiles | solubility (mole fraction)
CC1=C(C(=O)O)N2C(=O)[C@@H](NC(=O)[C@H](N)C3=CCC=CC3)[C@H]2SC1 | 0.000955

====

conditions: in n-propanol, 303.15 K
measurement.name: solubility (mole fraction)

mol.smiles | numeric.result
CC1=C(C(=O)O)N2C(=O)[C@@H](NC(=O)[C@H](N)C3=CCC=CC3)[C@H]2SC1 | 0.000381

====

conditions: in methanol, 293.15 K

mol.smiles | solubility (mole fraction)
CC1=C(C(=O)O)N2C(=O)[C@@H](NC(=O)[C@H](N)C3=CCC=CC3)[C@H]2SC1 | 0.000738

====

details: in n-butanol, 298.15 K

mol.smiles | solubility (mole fraction)
CC1=C(C(=O)O)N2C(=O)[C@@H](NC(=O)[C@H](N)C3=CCC=CC3)[C@H]2SC1 | 0.000478

====

settings: in ethanol, 291.15 K

mol.smiles | solubility (mole fraction)
CC1=C(C(=O)O)N2C(=O)[C@@H](NC(=O)[C@H](N)C3=CCC=CC3)[C@H]2SC1 | 0.000233

====

details: in methanol, 298.15 K

mol.smiles | solubility (mole fraction)
CC1=C(C(=O)O)N2C(=O)[C@@H](NC(=O)[C@H](N)C3=CCC=CC3)[C@H]2SC1 | 0.000845

====

settings: in methanol, 288.15 K

mol.smiles | solubility (mole fraction)
CC1=C(C(=O)O)N2C(=O)[C@@H](NC(=O)[C@H](N)C3=CCC=CC3)[C@H]2SC1 | 0.00065

====

conditions: in n-propanol, 283.15 K

mol.smiles | solubility (mole fraction)
CC1=C(C(=O)O)N2C(=O)[C@@H](NC(=O)[C@H](N)C3=CCC=CC3)[C@H]2SC1 | 0.00019

====

details: in methanol, 291.15 K

mol.smiles | solubility (mole fraction)
CC1=C(C(=O)O)N2C(=O)[C@@H](NC(=O)[C@H](N)C3=CCC=CC3)[C@H]2SC1 | 0.000702

====

conditions: in water, 293.15 K

mol.smiles | solubility (mole fraction)
CC1=C(C(=O)O)N2C(=O)[C@@H](NC(=O)[C@H](N)C3=CCC=CC3)[C@H]2SC1 | 0.00116
